Items are presented alongside their recorded MIC.
Test system: S. aureus Col(Meth^R)(lac^-)
Counter-ions that a name gives are not always drawn.
Please give a number only; it is taken to be in µg/mL.

Consider the following illustrative entries.
- molecule: "CC(N)COCc1cnccc1SC1=C(C(=O)O)N2C(=O)[C@@H](NC(=O)/C(=N\\O)c3nc(N)sc3Cl)[C@H]2SC1 (stereo partly drawn) [Cmpd 49, trifluoroacetic acid salt]"
  system: "S. aureus Col(Meth^R)(lac^-)"
  MIC (µg/mL): 2
- molecule: "NCCSCc1nnsc1SC1=C(C(=O)O)N2C(=O)[C@@H](NC(=O)Cc3ccccc3)[C@H]2SC1.O=C(O)C(F)(F)F"
  system: "S. aureus Col(Meth^R)(lac^-)"
  MIC (µg/mL): 0.5

IN: Form field - read-out: MIC; system: S. aureus Col(Meth^R)(lac^-); submitted item: N=CNCCCSCc1cnccc1SC1=C(C(=O)O)N2C(=O)[C@@H](NC(=O)/C(=N\O)c3nc(N)sc3Cl)[C@H]2SC1 [Cmpd 34, trifluoroacetic acid salt]
OUT: 1

----------
Structures can show the parent of a compound that is named as a salt.
The following compounds each carry a recorded MIC for S. aureus ATCC 29213.
Please give a number only; it is taken to be in µg/mL.

- compound: "N=C(N)SCc1ncsc1SC1=C(C(=O)O)N2C(=O)[C@@H](NC(=O)/C(=N\\O)c3csc(N)n3)[C@H]2SC1 [Cmpd 7, trifluoroacetic acid salt]"
  MIC, µg/mL: 0.5
- compound: "CN(C)C(=O)[C@@H]1CC(SCc2cnccc2SC2=C(C(=O)O)N3C(=O)[C@@H](NC(=O)/C(=N\\O)c4nc(N)sc4Cl)[C@H]3SC2)CN1 (stereo partly shown) [Cmpd 55, trifluoroacetic acid salt]"
  MIC, µg/mL: 0.5
- compound: "NC(=O)[C@@H](N)CSCc1cnccc1SC1=C(C(=O)O)N2C(=O)[C@@H](NC(=O)/C(=N\\O)c3nc(N)sc3Cl)[C@H]2SC1 [Cmpd 59, trifluoroacetic acid salt]"
  MIC, µg/mL: 0.5
- compound: "NCCS(=O)(=O)Cc1cnccc1SC1=C(C(=O)O)N2C(=O)[C@@H](NC(=O)/C(=N\\O)c3nc(N)sc3Cl)[C@H]2SC1 [Cmpd 45, trifluoroacetic acid salt]"
  MIC, µg/mL: 1
- compound: "CNCCNCCSCc1nnsc1SC1=C(C(=O)O)N2C(=O)[C@@H](NC(=O)/C(=N\\OCCF)c3nc(N)sc3Cl)[C@H]2SC1.O=C(O)C(F)(F)F"
  MIC, µg/mL: 1
- compound: "N=C(N)SCc1nnsc1SC1=C(C(=O)O)N2C(=O)[C@@H](NC(=O)/C(=N\\O)c3csc(N)n3)[C@H]2SC1 [Cmpd 4, trifluoroacetic acid salt]"
  MIC, µg/mL: 0.25
- compound: "NCCSc1cnccc1SC1=C(C(=O)O)N2C(=O)[C@@H](NC(=O)/C(=N\\O)c3nc(N)sc3Cl)[C@H]2SC1 [Cmpd 30, trifluoroacetic acid salt]"
  MIC, µg/mL: 0.25
- compound: "CN(C)C(=O)[C@@H](N)CSCc1cnccc1SC1=C(C(=O)O)N2C(=O)[C@@H](NC(=O)/C(=N\\O)c3nc(N)sc3Cl)[C@H]2SC1 [Cmpd 58, trifluoroacetic acid salt]"
  MIC, µg/mL: 0.5

IN: Form field - read-out: MIC; system: S. aureus ATCC 29213; submitted item: CC(=N)NCCSCc1cnccc1SC1=C(C(=O)O)N2C(=O)[C@@H](NC(=O)/C(=N\O)c3nc(N)sc3Cl)[C@H]2SC1 [Cmpd 54, trifluoroacetic acid salt]
OUT: 0.25

IN: Form field - read-out: MIC; system: S. aureus ATCC 29213; submitted item: NCC[S+]([O-])Cc1cnccc1SC1=C(C(=O)O)N2C(=O)[C@@H](NC(=O)/C(=N\O)c3nc(N)sc3Cl)[C@H]2SC1 (stereo partly shown) [Cmpd 53, trifluoroacetic acid salt]
OUT: 0.5

IN: Form field - read-out: MIC; system: S. aureus ATCC 29213; submitted item: O=C(Cc1ccccc1)N[C@@H]1C(=O)N2C(C(=O)O)=C(Sc3snnc3CSC3CCNC3)CS[C@H]12 (stereo partly shown) [Cmpd 6, trifluoroacetic acid salt]
OUT: 0.25

IN: Form field - read-out: MIC; system: S. aureus ATCC 29213; submitted item: CC(C)(N)CSCc1cnccc1SC1=C(C(=O)O)N2C(=O)[C@@H](NC(=O)/C(=N\O)c3nc(N)sc3Cl)[C@H]2SC1 [Cmpd 62, trifluoroacetic acid salt]
OUT: 0.5

IN: Form field - read-out: MIC; system: S. aureus ATCC 29213; submitted item: NCCOCc1cnccc1SC1=C(C(=O)O)N2C(=O)[C@@H](NC(=O)/C(=N\O)c3nc(N)sc3Cl)[C@H]2SC1 [Cmpd 40, trifluoroacetic acid salt]
OUT: 0.25

IN: Form field - read-out: MIC; system: S. aureus ATCC 29213; submitted item: CC(C)(CN)SCc1cnccc1SC1=C(C(=O)O)N2C(=O)[C@@H](NC(=O)/C(=N\O)c3csc(N)n3)[C@H]2SC1 [Cmpd 19, trifluoroacetic acid salt]
OUT: 0.5

IN: Form field - read-out: MIC; system: S. aureus ATCC 29213; submitted item: Nc1nc(/C(=N/O)C(=O)N[C@@H]2C(=O)N3C(C(=O)O)=C(Sc4ccncc4CSC4CCNC4)CS[C@H]23)c(Cl)s1 (stereo partly shown) [Cmpd 42, trifluoroacetic acid salt]
OUT: 0.13
